SYSTEM NAME: Mycobacterium tuberculosis InhA (Mycobacterium tuberculosis)
Construct: made in house; host or cells: E. coli
PROTOCOL TEXT: Mycobacterium tuberculosis InhA Inhibition Assay (Enzyme Assay)
Assay type: biochemical
CONDITION: IC50 value, 5 nM InhA, 50 μM DDCoA, 50 μM NADH, PIPES buffer pH 6.8; initial velocities of NADH consumption
pIC50: −log10 of the molar value.
Measured pIC50, listed per entry for reference.

# example entries with known answers
1. Cc1csc(C(C)(O)c2nnc(Nc3ccn(Cc4cccc(Cl)c4F)n3)s2)n1 (centres unmarked)
> 6.96
2. Cc1cc(C(F)(F)F)nn1Cc1nnc(Nc2ccn(Cc3ccccc3Cl)n2)s1
6.66 to 6.96
3. Cc1cc(C)n(C(C)c2nnc(Nc3ccn(Cc4ccc(F)cc4)n3)s2)n1 (centres unmarked)
6.60 to 6.90
4. Cc1cc(C)n(C(C)c2nnc(Nc3ccn(Cc4ccc(Cl)cc4)n3)s2)n1 (centres unmarked)
6.62 to 6.92
5. O=[N+]([O-])c1ccn(Cc2nnc(Nc3ccn(Cc4c(Cl)cccc4Cl)n3)s2)n1
> 6.96
6. COC(c1nc(C)cs1)c1nnc(Nc2ccn(Cc3c(F)cccc3F)n2)s1 (centres unmarked)
6.64 to 6.94

// next item, pIC50 requested
Prompt: Form entry - test system: Mycobacterium tuberculosis InhA (Mycobacterium tuberculosis); read-out: pIC50; molecule: Cc1csc(C(C)(O)c2nnc(Nc3ccn(Cc4cccc(C)c4F)n3)s2)n1 (centres unmarked)
Completion: > 6.94

* * *

SYSTEM NAME: Mycobacterium tuberculosis InhA (Mycobacterium tuberculosis, UniProt P9WGR1)
Construct: made in house; host or cells: E. coli
Sequence (P9WGR1 whole entry, looked up): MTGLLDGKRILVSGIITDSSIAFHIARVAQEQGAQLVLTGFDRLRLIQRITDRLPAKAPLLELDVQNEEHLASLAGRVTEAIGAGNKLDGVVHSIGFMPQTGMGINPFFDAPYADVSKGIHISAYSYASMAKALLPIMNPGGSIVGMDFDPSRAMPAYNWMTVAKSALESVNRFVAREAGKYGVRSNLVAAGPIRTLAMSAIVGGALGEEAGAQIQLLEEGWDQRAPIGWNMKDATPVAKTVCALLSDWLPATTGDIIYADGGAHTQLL
PROTOCOL TEXT: Mycobacterium tuberculosis InhA Inhibition Assay (Enzyme Assay)
Format: biochemical
CONDITION: IC50 value, 5 nM InhA, 50 μM DDCoA, 50 μM NADH, PIPES buffer pH 6.8; initial velocities of NADH consumption
pIC50: −log10 of the molar value.
VALUE TYPE: pIC50

Take a look at these entries with their results.
1. Cc1cc(C)n(C(C)c2nnc(Nc3ccn(Cc4c(F)ccc(N)c4F)n3)s2)n1 (stereo not drawn)
> 6.93
2. Cc1cc(C(F)F)nn1Cc1nnc(Nc2ccn(Cc3ccccc3Cl)n2)s1
> 6.94

// below: pIC50 requested for another compound
Prompt: Tell me the measured pIC50 of Cc1ccn(C(C)c2nnc(Nc3ccn(Cc4c(F)cccc4F)n3)s2)n1 (stereo not drawn) , please.
Completion: > 6.90

* * *

System: Mycobacterium tuberculosis H37Rv
PROTOCOL TEXT: Mycobacterium tuberculosis H37Rv Inhibition Assay (Whole Cell Assay)
Format: cell-based
CONDITION: ATCC 25618 / H37Rv, H37Rv strain (ATCC25618), Middlebrook 7H9, six days at 37° C., resazurin fluorescence after 48 hours
VALUE TYPE: MIC

Example entries and their recorded answers appear below.
1. Cc1cc(C)n(C(C)c2nnc(Nc3ccn(Cc4cccc(N)c4C)n3)s2)n1 (stereo not drawn) [Example 27]
4 to 10 µM
2. Cc1ccn(C(C)c2nnc(Nc3ccn(Cc4ccc(F)cc4Cl)n3)s2)n1 (stereo not drawn) [Example 18]
> 10 µM

Prompt: So what's the measured MIC for this one? Cc1cc(C)n(C(C)c2nnc(Nc3ccn(Cc4ccc(F)cc4)n3)s2)n1 (stereo not drawn) [Example 75]
Completion: > 10 µM

Prompt: Fill blank: measured MIC of the compound Cc1cc(C)n(Cc2nnc(Nc3ccn(Cc4c(F)cccc4Cl)n3)s2)n1 [Example 51] is ____.
Completion: > 10 µM

Prompt: MIC for Cc1cc(C)n([C@H](C)c2nnc(Nc3ccn(Cc4c(F)cccc4Cl)n3)s2)n1 (single isomer, unassigned) [Example 68] ?
Completion: > 10 µM

Prompt: Consider the compound CCOc1c(F)ccc(F)c1Cn1ccc(Nc2nnc(C(C)n3nc(C)cc3C)s2)n1 (stereo not drawn) [Example 82] and give its measured MIC.
Completion: 4 to 10 µM
